Target: Mdm2 (residues 1–118 T47W) (Homo sapiens, UniProt Q00987, T47W)
Construct: Mdm2 (residues 1–118 T47W; 500 nM)
Sequence (Q00987 1-118 T47W): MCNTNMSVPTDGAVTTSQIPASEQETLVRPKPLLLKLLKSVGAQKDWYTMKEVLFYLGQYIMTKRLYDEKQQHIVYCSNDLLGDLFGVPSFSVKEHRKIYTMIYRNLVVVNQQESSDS
Assay: MDM2 binding by microscale thermophoresis (MST)
The compounds listed here are annotated with their Kd.

[
  {
    "compound": "Cc1ccc([C@@H]2C3CSCN3[C@]3(C(=O)Nc4ccccc43)[C@H]2C(=O)c2nc3ccccc3[nH]2)cc1 (mixture of isomers)",
    "Kd [µM]": 17.4
  },
  {
    "compound": "O=C(c1nc2ccccc2[nH]1)[C@H]1[C@H](c2ccc(Br)cc2)C2CSCN2[C@]12C(=O)Nc1ccccc12 (some centres unmarked)",
    "Kd [µM]": 49.9
  },
  {
    "compound": "O=C(c1nc2ccccc2[nH]1)[C@H]1[C@H](c2cccs2)C2CSCN2[C@]12C(=O)Nc1ccccc12 (some centres unmarked)",
    "Kd [µM]": 113
  },
  {
    "compound": "O=C(c1nc2ccccc2[nH]1)[C@H]1[C@H](c2ccccc2)C2CSCN2[C@]12C(=O)Nc1ccccc12 (mixture of isomers)",
    "Kd [µM]": 87.7
  },
  {
    "compound": "O=C(c1nc2ccccc2[nH]1)[C@H]1[C@H](c2cccc(O)c2)C2CSCN2[C@]12C(=O)Nc1ccccc12 (some centres unmarked)",
    "Kd [µM]": 6.68
  }
]

====

Test system: NCI-H23
Experiment: NCI anticancer screening, Non-Small Cell Lung Cancer NCI-H23
Format: cell-based
Settings: Homo sapiens; NCI-H23, 10 μM; read-out: % Growth Inhibition (GI %)

[
  {
    "compound": "O=C(c1nc2ccccc2[nH]1)[C@H]1[C@H](c2ccc(Cl)cc2)C2CSCN2[C@]12C(=O)Nc1ccccc12 (stereo partly shown)",
    "inhibition at 10 µM [%]": 81.4
  },
  {
    "compound": "O=C(c1nc2ccccc2[nH]1)[C@H]1[C@H](c2ccccc2)C2CSCN2[C@]12C(=O)Nc1ccccc12 (mixture of isomers)",
    "inhibition at 10 µM [%]": 104
  },
  {
    "compound": "Cc1ccc([C@@H]2C3CSCN3[C@]3(C(=O)Nc4ccccc43)[C@H]2C(=O)c2nc3ccccc3[nH]2)cc1 (mixture of isomers)",
    "inhibition at 10 µM [%]": 91.2
  },
  {
    "compound": "O=C(c1nc2ccccc2[nH]1)[C@H]1[C@H](c2cccc(O)c2)C2CSCN2[C@]12C(=O)Nc1ccccc12 (stereo partly shown)",
    "inhibition at 10 µM [%]": 99.3
  },
  {
    "compound": "O=C(c1nc2ccccc2[nH]1)[C@H]1[C@H](c2ccc(F)cc2)C2CSCN2[C@]12C(=O)Nc1ccccc12 (stereo partly shown)",
    "inhibition at 10 µM [%]": 98
  },
  {
    "compound": "CN(C)c1ccc([C@@H]2C3CSCN3[C@]3(C(=O)Nc4ccccc43)[C@H]2C(=O)c2nc3ccccc3[nH]2)cc1 (stereo partly shown)",
    "inhibition at 10 µM [%]": 94.3
  },
  {
    "compound": "O=C(c1nc2ccccc2[nH]1)[C@H]1[C@H](c2ccco2)C2CSCN2[C@]12C(=O)Nc1ccccc12 (stereo partly shown)",
    "inhibition at 10 µM [%]": 92.9
  }
]
